# System: A549
# ASSAY COMMENT: Euclidean distance of Cell Painting phenotypic profile (signed KS, 77 features) to DMSO centroid (dimensionless distance); 5 or 10 uM (library dependent); higher = stronger phenotypic change vs DMSO (phenoactivity)
# STATED CONDITIONS: 48 h
Structures can show the parent of a compound that is named as a salt.
Would you mind labelling by Euclidean distance? At or over 1 is Satisfied, under is Not satisfied.

Known results for molecules:
COc1ccc(S(=O)(=O)Nc2cccnc2Nc2ccc(O)cc2)cc1	Satisfied
CC(C)(Oc1ccc(Cl)cc1)C(=O)O	Not satisfied
CCCC(=O)[O-].[Na+] [Sodium butyrate]	Not satisfied
N=C(N)NS(=O)(=O)c1ccc(N)cc1	Not satisfied
COc1cc(Nc2nc3ccccc3nc2NS(=O)(=O)c2ccc(NC(=O)c3ccc(C)c(OC)c3)cc2)cc(OC)c1	Satisfied

Query block: Quick check: does CC(C)(C)C(=O)C(Oc1ccc(Cl)cc1)n1ccnc1 (configuration not stated) have Euclidean distance greater than or equal to 1?
Result block: Not satisfied

Query block: State whether the measured Euclidean distance reaches 1, counting equality as reaching it, for N=C1CCCN1Cc1[nH]c(=O)[nH]c(=O)c1Cl [Tipiracil hydrochloride]
Result block: Not satisfied

Query block: Decide: is the reported value of Euclidean distance for CN1CCOC(c2ccccc2)c2ccccc2C1 (configuration not stated) [Nefopam HCl] equal to or greater than 1?
Result block: Not satisfied
